Reference for the values: ChEMBL document CHEMBL1140190

experiment: Inhibition of TNF-alpha-induced NF-kappaB activation in human HeLa cells by SEAP reporter gene assay; type: cell-based
pIC50: −log10 of the molar value.
pIC50 reference
measured-endpoint: pIC50

smiles-repr: COc1cc2c(cc1OC)[C@]1(O)C(=O)c3c(O)cc4c(c3O[C@@H]1CO2)C=CC(C)(C)O4
measured-endpoint: pIC50
quantitative-result: 6.72
//
smiles-repr: CC(C)=CCC/C(C)=C/Cc1c(O)cc(CCc2ccccc2)c(C(=O)O)c1O
measured-endpoint: pIC50
quantitative-result: 5.81
//
smiles-repr: CC(C)=CCC/C(C)=C/Cc1c(O)cc(/C=C/c2ccccc2)cc1O
measured-endpoint: pIC50
quantitative-result: 6.59
//
smiles-repr: COc1c(C/C=C(\C)CCC=C(C)C)c(O)cc(CCc2ccccc2)c1C(=O)O
measured-endpoint: pIC50
quantitative-result: 5.95
